The values you see were collected from patent US4847268A.

Target: LTD4 receptor (Cavia porcellus)
Sequence (Q2NNR5 1-340): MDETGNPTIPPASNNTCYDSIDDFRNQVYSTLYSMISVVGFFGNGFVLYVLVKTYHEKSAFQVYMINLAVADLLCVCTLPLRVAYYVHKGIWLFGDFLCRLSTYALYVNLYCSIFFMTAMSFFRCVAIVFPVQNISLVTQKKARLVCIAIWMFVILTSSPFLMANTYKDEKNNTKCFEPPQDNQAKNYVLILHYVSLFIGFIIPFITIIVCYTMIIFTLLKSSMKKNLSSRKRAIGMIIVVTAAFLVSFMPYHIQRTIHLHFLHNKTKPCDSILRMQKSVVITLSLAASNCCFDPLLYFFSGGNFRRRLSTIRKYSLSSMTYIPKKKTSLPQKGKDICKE
pIC50: −log10 of the molar value. Structures can show the parent of a compound that is named as a salt.
Endpoint Name: pIC50

Illustrative cases are given below, each with its answer.
Compound | pIC50
Cc1ccc(SC2CCCc3cccnc32)cc1 (stereo not shown) [Example 5, hydrochloride] | 4.63
Clc1ccc(SC2CCCc3cccnc32)cc1 (stereo not shown) [Example 1, hydrochloride] | 4.65

I = COc1ccc(SC2CCCc3cccnc32)cc1 (stereo not shown) [Example 14, hydrochloride]
II = O=[N+]([O-])c1ccc(SC2CCCc3cccnc32)cc1 (stereo not shown) [Example 4, hydrochloride]
Prompt: I would appreciate it if you could say which entry, I or II , has the lower pIC50 value. Return value: the label identifying the chosen record.
Completion: II

====

Biological target: 5-lipoxygenase (Rattus norvegicus, UniProt P12527)
Construct: pre-labelled rat peritoneal neutrophils; endogenous in cells
Sequence (P12527 1-673): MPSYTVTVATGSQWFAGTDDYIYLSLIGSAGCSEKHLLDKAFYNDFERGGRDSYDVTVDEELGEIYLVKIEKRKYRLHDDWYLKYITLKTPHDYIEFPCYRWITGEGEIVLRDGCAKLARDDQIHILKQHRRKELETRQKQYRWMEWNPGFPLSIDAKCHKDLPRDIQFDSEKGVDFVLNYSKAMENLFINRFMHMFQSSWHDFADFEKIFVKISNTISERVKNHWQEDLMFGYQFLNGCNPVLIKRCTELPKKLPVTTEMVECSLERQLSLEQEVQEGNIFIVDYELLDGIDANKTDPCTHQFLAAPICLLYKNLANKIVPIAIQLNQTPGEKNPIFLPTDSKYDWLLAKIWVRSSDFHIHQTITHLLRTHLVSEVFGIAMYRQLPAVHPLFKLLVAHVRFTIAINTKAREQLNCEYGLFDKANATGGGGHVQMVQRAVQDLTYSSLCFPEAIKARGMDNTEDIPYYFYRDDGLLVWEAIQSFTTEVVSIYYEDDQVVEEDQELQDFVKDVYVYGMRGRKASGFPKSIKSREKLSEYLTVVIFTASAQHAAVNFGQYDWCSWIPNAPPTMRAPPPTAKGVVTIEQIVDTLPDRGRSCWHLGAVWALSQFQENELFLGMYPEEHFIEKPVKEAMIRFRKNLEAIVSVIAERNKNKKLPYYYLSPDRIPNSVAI
Experiment: 5-LIPOX: inhibition of Ca++ ionophore (A23187)-induced release of 5-lipoxygenase products from [14C]-arachidonic acid pre-labelled rat peritoneal neutrophils
Conditions: A23187-induced release of leukotriene D4 and 5-HETE, determined graphically from dose-response curves, read-out: 5-LIPOX: concentration of test compound causing 50% inhibition of control response
pIC50: −log10 of the molar value. Counter-ions that a name gives are not always drawn.
Endpoint Name: pIC50

Consider the following illustrative entries.
Molecule | pIC50
CCCCOc1ccc(SC2CCCc3cccnc32)cc1 (stereo not drawn) [Example 17, hydrochloride] | 5.43
c1cnc2c(c1)CCCC2Sc1cccc2ccccc12 (stereo not drawn) | 5.77
O=[N+]([O-])c1ccc(SC2CCCc3cccnc32)cc1 (stereo not drawn) [Example 4, hydrochloride] | 4.90

A = Clc1ccc(SC2CCCc3cccnc32)cc1 (stereo not drawn) [Example 1, hydrochloride]
B = N#Cc1ccc(SC2CCCc3cccnc32)cc1 (stereo not drawn)
C = COc1ccc(SC2CCCc3cccnc32)cc1 (stereo not drawn) [Example 14, hydrochloride]
Prompt: rank_up(items): orders items by reported pIC50 in ascending numerical order. Thanks in advance for listing the labels in the requested order.
Completion: B, C, A
(B: 4.51, C: 4.88, A: 5.38)

A = CCCCc1ccc(SC2CCCc3cccnc32)cc1 (stereo not drawn) [Example 10, hydrochloride]
B = Cc1ccc(SC2CCCc3cccnc32)cc1 (stereo not drawn) [Example 5, hydrochloride]
Prompt: // which entry has the larger pIC50 value, A or B ? Use the label to indicate which entry you chose.
Completion: A
(A: 5.72, B: 5.52)
